# Test: NCI Yeast Anticancer Drug Screen. Data for the sgs1 mgt1 strain (AID 161);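 also: 0% = growth of cultures given vehicle only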
# Measurement parameters: S. cerevisiae sgs1 mgt1 strain, at 50.0 µM, stronger effect = higher value
# Procedure: Growth inhibition of yeast strains with defined genetic alterations is measured as a screen for potential anti-cancer activity. Selected strains with alterations in DNA damage repair or cell cycle control were exposed to compounds and growth inhibition was measured relative to vehicle treated controls. The strain used in this assay is sgs1 mgt1
Compounds without any hit were thinned out: in the full panel of roughly 79,000, 15% have a hit.
Measured attribute: growth inhibition (%)
# output: bare number, implied unit %

Check out these entries, answers already filled in.
compound="CC(C)=CC(O)C/C(C)=C/CC/C(C)=C/CCC1(C)C(CCCO)/C(=C(/C)C=O)CCC1(C)O (stereo unspecified)" result_value=10.2
compound=C/C(O)=C/c1nc2sc(C)c(C)c2c(=O)s1 result_value=9.85
compound=CCC/C(Cl)=N/OC(=O)Nc1cccc(F)c1 result_value=90.8
compound="C/C(=C\\COc1cc(O)c2c(c1)C(=O)c1cc(C)cc(O)c1C2=O)CCC1OC1(C)C (stereo unspecified)" result_value=4.55
compound="CC(C)C1OC(N)=C(C#N)C1(C#N)C#N (stereo unspecified)" result_value=-7.35

Now for the compound whose growth inhibition we want.
Look up growth inhibition for this compound: NC(N)=Nc1ccc(CC(N)C(=O)O)cc1 (stereo unspecified)
-13.4
